Biological target: human TAS1R2-WT/TAS1R3-F749S (Homo sapiens, UniProt Q7RTX0+Q8TE23, F749S)
Construct: expressed in transfected cells; host or cells: HEK293T stably expressing Gα16gust44
Sequence (Q8TE23 20-839): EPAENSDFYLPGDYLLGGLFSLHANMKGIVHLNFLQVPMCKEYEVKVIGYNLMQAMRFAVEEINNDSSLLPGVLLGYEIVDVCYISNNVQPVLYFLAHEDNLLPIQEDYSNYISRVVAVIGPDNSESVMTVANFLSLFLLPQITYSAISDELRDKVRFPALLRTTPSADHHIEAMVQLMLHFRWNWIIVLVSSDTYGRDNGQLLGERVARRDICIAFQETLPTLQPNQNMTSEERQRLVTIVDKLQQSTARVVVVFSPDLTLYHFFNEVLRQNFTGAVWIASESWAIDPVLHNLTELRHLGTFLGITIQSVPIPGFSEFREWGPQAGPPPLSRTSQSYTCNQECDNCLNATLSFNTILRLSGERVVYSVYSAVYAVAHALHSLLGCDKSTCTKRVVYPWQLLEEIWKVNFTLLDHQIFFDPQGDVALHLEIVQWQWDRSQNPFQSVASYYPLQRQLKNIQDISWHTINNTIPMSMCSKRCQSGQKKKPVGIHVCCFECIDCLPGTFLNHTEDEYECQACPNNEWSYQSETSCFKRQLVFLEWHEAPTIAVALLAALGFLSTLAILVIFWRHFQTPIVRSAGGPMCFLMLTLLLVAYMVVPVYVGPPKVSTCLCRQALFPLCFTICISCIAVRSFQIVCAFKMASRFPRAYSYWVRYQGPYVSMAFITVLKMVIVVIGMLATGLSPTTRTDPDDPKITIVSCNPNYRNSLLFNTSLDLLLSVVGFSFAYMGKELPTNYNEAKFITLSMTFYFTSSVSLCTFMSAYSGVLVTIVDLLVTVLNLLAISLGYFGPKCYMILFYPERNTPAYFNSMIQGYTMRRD
Sequence (Q7RTX0 21-852 F749S): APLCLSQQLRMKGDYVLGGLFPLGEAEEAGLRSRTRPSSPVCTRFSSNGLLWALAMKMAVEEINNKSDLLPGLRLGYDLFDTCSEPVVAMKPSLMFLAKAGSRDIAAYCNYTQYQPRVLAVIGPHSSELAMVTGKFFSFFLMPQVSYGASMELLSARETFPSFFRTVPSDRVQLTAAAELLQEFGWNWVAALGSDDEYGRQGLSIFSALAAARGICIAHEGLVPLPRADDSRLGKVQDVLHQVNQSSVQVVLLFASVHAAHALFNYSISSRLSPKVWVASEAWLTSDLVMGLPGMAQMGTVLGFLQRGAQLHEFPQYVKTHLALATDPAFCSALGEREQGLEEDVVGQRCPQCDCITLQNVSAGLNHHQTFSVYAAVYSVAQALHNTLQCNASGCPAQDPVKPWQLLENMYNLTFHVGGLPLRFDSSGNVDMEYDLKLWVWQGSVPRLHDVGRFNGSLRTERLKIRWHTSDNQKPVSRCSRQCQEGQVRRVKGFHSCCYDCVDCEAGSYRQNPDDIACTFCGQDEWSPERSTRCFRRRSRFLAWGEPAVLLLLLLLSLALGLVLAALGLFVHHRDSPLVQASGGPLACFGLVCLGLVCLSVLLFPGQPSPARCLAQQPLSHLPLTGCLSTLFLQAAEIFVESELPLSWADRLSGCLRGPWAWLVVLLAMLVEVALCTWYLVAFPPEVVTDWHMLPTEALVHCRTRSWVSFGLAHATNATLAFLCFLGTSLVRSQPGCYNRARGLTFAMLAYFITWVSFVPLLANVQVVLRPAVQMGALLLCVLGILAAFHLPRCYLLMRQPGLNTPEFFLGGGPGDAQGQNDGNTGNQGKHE
Assay: Calcium mobilisation assay, TAS1R2-WT with TAS1R3 variant F749S
Format: cell-based
Settings: read-out: EC50
Reported Property: EC50 (µM)

1 = C=C(C)[C@@H]1CC=C(/C=N/O)CC1
2 = COC(=O)[C@H](Cc1ccccc1)NC(=O)[C@H](CC(=O)O)NCCC(C)(C)C
Returns the identifier with the smallest measured EC50 among 1 and 2 . Kindly give the label for the entry you pick.
2

* * *

Molecular target: human TAS1R2-P21L/TAS1R3-WT (Homo sapiens, UniProt Q7RTX0+Q8TE23, P21L)
Experiment: Calcium mobilisation assay, TAS1R2 variant P21L with TAS1R3-WT
Reported Property: EC50 (µM)

{"Compound": "C[C@H](CC[C@@H](O[C@@H]1O[C@H](CO[C@@H]2O[C@H](CO)[C@@H](O)[C@H](O)[C@H]2O)[C@@H](O)[C@H](O)[C@H]1O[C@@H]1O[C@H](CO)[C@@H](O)[C@H](O)[C@H]1O)C(C)(C)O)[C@H]1CC[C@@]2(C)[C@@H]3CC=C4[C@@H](CC[C@H](O[C@@H]5O[C@H](CO[C@@H]6O[C@H](CO)[C@@H](O)[C@H](O)[C@H]6O)[C@@H](O)[C@H](O)[C@H]5O)C4(C)C)[C@]3(C)[C@H](O)C[C@]12C [Mogroside V, mogroside V]", "EC50 [µM]": 19.9}

a = COC(=O)[C@H](Cc1ccccc1)NC(=O)[C@H](CC(=O)O)NCCC(C)(C)C [Neotame]
b = COc1ccc(CCC(=O)c2c(O)cc(O[C@@H]3O[C@H](CO)[C@@H](O)[C@H](O)[C@H]3O[C@@H]3O[C@@H](C)[C@H](O)[C@@H](O)[C@H]3O)cc2O)cc1O [NHDC, neohesperidin dihydrochalcone]
Returns the identifier with the smallest measured EC50 among a and b . Kindly give the label for the entry you pick.
a
(a: 0.67 µM, b: 100 µM)

* * *

Target: human TAS1R2-WT/TAS1R3-R813K (Homo sapiens, UniProt Q7RTX0+Q8TE23, R813K)
Construct: expressed in transfected cells; host or cells: HEK293T stably expressing Gα16gust44
Assay: Calcium mobilisation assay, TAS1R2-WT with TAS1R3 variant R813K
Format: cell-based
Conditions: maximal signal amplitude
Reported Property: Max ΔF/F0

{"Compound": "C=C1C[C@@]23CC[C@H]4[C@@](C)(CCC[C@@]4(C)C(=O)O[C@@H]4O[C@H](CO)[C@@H](O)[C@H](O[C@@H]5O[C@H](CO)[C@@H](O)[C@H](O)[C@H]5O)[C@H]4O[C@@H]4O[C@H](CO)[C@@H](O)[C@H](O)[C@H]4O)[C@@H]2CC[C@]1(O[C@@H]1O[C@H](CO)[C@@H](O)[C@H](O[C@@H]2O[C@H](CO)[C@@H](O)[C@H](O)[C@H]2O)[C@H]1O[C@@H]1O[C@H](CO)[C@@H](O)[C@H](O)[C@H]1O)C3 [Rebaudioside M, rebaudioside M]", "Tgt": "human TAS1R2-WT/TAS1R3-R813K (Homo sapiens, UniProt Q7RTX0+Q8TE23, R813K)", "Max ΔF/F0": 1.18}

1 = COc1ccc(CCC(=O)c2c(O)cc(O[C@@H]3O[C@H](CO)[C@@H](O)[C@H](O)[C@H]3O[C@@H]3O[C@@H](C)[C@H](O)[C@@H](O)[C@H]3O)cc2O)cc1O [NHDC, neohesperidin dihydrochalcone]
2 = CC1=CC(=O)NS(=O)(=O)O1
Larger number for Max ΔF/F0: 1 , or 2 ? Kindly give the label for the entry you pick.
1

* * *

Molecular target: human TAS1R2-R838K/TAS1R3-WT (Homo sapiens, UniProt Q7RTX0+Q8TE23, R838K)
Test: Calcium mobilisation assay, TAS1R2 variant R838K with TAS1R3-WT
Reported Property: EC50 (µM)

{"Compound": "C=C1C[C@@]23CC[C@H]4[C@@](C)(CCC[C@@]4(C)C(=O)O[C@@H]4O[C@H](CO)[C@@H](O)[C@H](O[C@@H]5O[C@H](CO)[C@@H](O)[C@H](O)[C@H]5O)[C@H]4O[C@@H]4O[C@H](CO)[C@@H](O)[C@H](O)[C@H]4O)[C@@H]2CC[C@]1(O[C@@H]1O[C@H](CO)[C@@H](O)[C@H](O[C@@H]2O[C@H](CO)[C@@H](O)[C@H](O)[C@H]2O)[C@H]1O[C@@H]1O[C@H](CO)[C@@H](O)[C@H](O)[C@H]1O)C3 [Rebaudioside M, rebaudioside M]", "EC50, µM": 18.2}

1 = C=C(C)[C@@H]1CC=C(/C=N/O)CC1 [Perillartine, perillartine]
2 = COC(=O)[C@H](Cc1ccccc1)NC(=O)[C@H](CC(=O)O)NCCC(C)(C)C [Neotame]
3 = COc1ccc(CCC(=O)c2c(O)cc(O[C@@H]3O[C@H](CO)[C@@H](O)[C@H](O)[C@H]3O[C@@H]3O[C@@H](C)[C@H](O)[C@@H](O)[C@H]3O)cc2O)cc1O [NHDC, neohesperidin dihydrochalcone]
4 = CC1=CC(=O)NS(=O)(=O)O1 [Acesulfame K, acesulfame K]
Hey, quick one: sort these by EC50, low to high? Provide the ranking by listing each label in its place in the requested order.
2, 1, 3, 4
(2: 0.66 µM, 1: 19.1 µM, 3: 75.8 µM, 4: 484 µM)
